Procedure Text: RPMI8226 myeloma cell viability, profiling panel, resazurin fluorescence, basal, 24 h, PK04 Diversity Set (AID 1180);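 also: RPMI8826 multiple myeloma cell line at 5000 cells per well; test concentration not given here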
Protocol Conditions: higher = more signal
Field: z-score. Provide a value for each of the compounds that follow.
// print number alone

### Prompt Record request: z-score value, item Cc1cc(C)c(C(O)C2C=CC3C(=O)N(C)C(=O)C3N2N2CCCCC2)c(C)c1 (configuration not stated)
### Response -1.02

### Prompt Param item: CCOC(=O)C[C@H]1[C@H](OC(=O)c2cc3ccccc3oc2=O)[C@@H](NC(=O)c2ccc3ccccc3c2)c2cc(OCCCO)ccc2N1C(=O)c1ccc2ccccc2n1
### Response -0.536

### Prompt Param item: CCC(=O)[C@]12O[C@@]3([C@@H]4C(=O)OCC[C@@H]41)N(Cc1ccccc1)C(C)=C(C(=O)OC)[C@@H](c1ccccc1)N3C2=O
### Response 0.95

### Prompt Param item: [N-]=[N+]=NCc1ccccc1C[C@@]1(C(=O)N2CCOCC2)N=C(c2ccc(OCCCO)cc2)O[C@@H]1c1ccccc1N=[N+]=[N-]
### Response -1.62

### Prompt Param item: Cc1ccc(N2C(=O)c3ccccc3[C@](C)(C(=O)NCC(C)C)[C@@H]2c2ccc(CO)cc2)nc1
### Response -0.481

### Prompt Param item: C=CCNC(=O)[C@H]1[C@@H]2C(=O)O[C@@H](c3ccccc3)[C@@H](c3ccccc3)N2[C@@H](c2ccc(O)cc2)[C@]12C(=O)Nc1ccc(C#CCNC(N)=O)cc12
### Response 0.917

### Prompt Param item: C=CCN(C(=O)C1N(c2ccc(CCO)cc2)C(=O)C2C(C(=O)O)C3C=CC21O3)C(C)(C)C (configuration not stated)
### Response 0.327

* * *

Procedure Text: binders of probe aHhip on microarray, primary screen, stem cell growth factor project, biochemical, small-molecule microarray, fluorescence 635/667 (AID 1087);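 also: score merges spot fluorescence at 667nm with spot signal to noise ratio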
Protocol Conditions: higher = more signal
Field: composite z-score. Provide a value for each of the compounds that follow.
// print number alone

### Prompt Record request: composite z-score value, item CN(C)CCCC[C@@H]1NC(=O)[C@@H]2C[C@H](C(=O)NCCCCCNC(=O)CS)[C@H](c3ccc(O)cc3)N2C1=O
### Response 0.382

### Prompt Param item: Cc1ccc(S[C@]2(C(=O)O)CC(=O)N(Cc3ccccc3)[C@@H]2c2ccc(CO)cc2)cc1
### Response -0.367

### Prompt Param item: C[N+](C)(C)CCCCNC(=O)[C@H]1C[C@H]2C(=O)NCC(=O)N2[C@H]1c1cccc(OCCO)c1
### Response 0.245

### Prompt Param item: C[C@@H]1CC[C@H]2C(=O)N3[C@@H](CC[C@@H](C)[C@@H]3c3cccc(N4CCOCC4)c3)C(=O)N2[C@H]1c1cccc(N2CCOCC2)c1
### Response 1.3

### Prompt Param item: C/C(=N\O)C(=O)NCCCCCNC(=O)OCc1ccccc1
### Response -0.226

### Prompt Param item: COc1ccc([Si](C)(C)[C@H]2[C@H](CC(=O)N3Cc4ccccc4C[C@H]3CO)O[C@@]3(C(=O)N(Cc4cccc(N5CCOC5=O)c4)c4ccccc43)[C@@H]2C)cc1
### Response -0.264

### Prompt Param item: O=C1C2C=CC(C(O)C(c3ccccc3)c3ccccc3)N(Nc3ccc([N+](=O)[O-])cc3)C2C(=O)N1c1ccccc1 (stereo not given)
### Response -0.0994

### Prompt Param item: CCCC=C(CCC)[C@@H](NC(=O)c1ccc(C(F)(F)F)cc1)c1ccccc1
### Response -0.0296

### Prompt Param item: COc1ccc([Si](C)(C)[C@H]2[C@H](CCO)O[C@@]3(C(=O)N(Cc4ccc(N5CCCCC5=O)cc4)c4ccccc43)[C@@H]2C)cc1
### Response -0.0994

### Prompt Param item: CCCC=C(CCC)[C@@H](NS(=O)(=O)c1cccc(C(F)(F)F)c1)c1ccc(C(=O)OC)cc1
### Response 0.171

### Prompt Param item: CCCCCCc1nc(C2CC2)c(C)c2c1[Si](C(C)C)(C(C)C)OC2
### Response -0.0672

### Prompt Param item: CCC(=O)[C@]12O[C@@]3([C@@H]4C(=O)OCC[C@@H]41)N(CC)C(C)=C(C(=O)OC)[C@@H](c1ccccc1)N3C2=O
### Response 0.176

### Prompt Param item: C=CCN1C(=O)[C@]2(O[C@H](CCn3cc(CCO)nn3)[C@@H]([Si](C)(C)c3ccc(OC)cc3)[C@@H]2C)c2cc(NC(=O)c3ccc(OC)cc3)ccc21
### Response 0.176

### Prompt Param item: C[C@]1(C(=O)NCCN2CCOCC2)c2ccccc2C(=O)N(Cc2ccccc2)[C@H]1c1ccc(CO)cc1
### Response -0.0346

### Prompt Param item: [N-]=[N+]=NCc1ccccc1[C@H]1OC(c2ccc(OCCCO)cc2)=N[C@@]1(Cc1ccccc1N=[N+]=[N-])C(=O)NCc1ccccc1
### Response 0.0595

### Prompt Param item: CCOC(=O)C[C@H]1[C@H](OC(=O)c2cc3ccccc3oc2=O)[C@@H](NC(=O)c2ccc3ccccc3c2)c2cc(OCCCO)ccc2N1C(=O)c1ccc2ccccc2n1
### Response -0.0994

### Prompt Param item: COc1ccc(C(=O)Nc2ccc(CN3C(=O)[C@]4(O[C@H](CCn5cc(CCO)nn5)[C@@H]([Si](C)(C)c5ccc(OC)cc5)[C@@H]4C)c4ccccc43)cc2)cc1
### Response -0.0645

### Prompt Param item: CO[C@H]1O[C@H](CO)[C@@H](OC(=O)Nc2ccc3c(c2)OCO3)[C@H](OC(=O)Nc2ccccc2)[C@@H]1OC(=O)Nc1ccccc1
### Response -0.0994

### Prompt Param item: C=CCN1C(=O)[C@@]2(Cc3ccccc3)N=C(c3ccc(OCCCO)cc3)O[C@H]2c2ccccc21
### Response -0.132

### Prompt Param item: CCCC=C(CCC)[C@@H](NC(=O)c1ccccc1)c1ccccc1
### Response 0.304

### Prompt Param item: O=C1c2ccccc2[C@@]2(Cc3ccccc3N(CC(F)(F)F)C2=O)[C@H](c2ccc(CO)cc2)N1C1CCCCC1
### Response -0.0618

### Prompt Param item: Cc1ccc(S[C@]2(C(=O)NC3CC3)CC(=O)N(Cc3cc(C(F)(F)F)cc(C(F)(F)F)c3)[C@@H]2c2ccc(CO)cc2)cc1
### Response -0.295

### Prompt Param item: CC(=O)NCCCC[C@@H]1NC(=O)[C@@H]2C[C@H](C(=O)NCCCCCCN(C)C)[C@H](c3ccc(O)cc3)N2C1=O
### Response 0.797

### Prompt Param item: O=C1O[C@@H](c2ccccc2)[C@@H](c2ccccc2)N2[C@@H](c3ccc(OCCO)cc3)[C@]3(C(=O)Nc4ccc(C#CCCO)cc43)[C@@H](C(=O)N3CCN(c4ncccn4)CC3)[C@H]12
### Response -0.171

### Prompt Param item: COCC(=C=CC[C@H](O)c1ccc(OCCO)cc1)C[C@H](O)c1ccccn1
### Response -0.134

### Prompt Param item: COC(=O)C[C@H]1O[C@]2(C(=O)N(C)c3ccccc32)[C@@H](C)[C@@H]1[Si](C)(C)c1ccc(OC)cc1
### Response -0.0645

### Prompt Param item: C[C@@H]1CC[C@H]2C(=O)N3CCC[C@H]3C(=O)N2[C@H]1c1ccc(Br)cc1
### Response 0.0274

### Prompt Param item: C=C(C(=O)CC[C@H](OC(=O)c1ccccc1-c1ccccc1C(=O)O)c1ccc(CO)o1)C(C)C
### Response -0.0645

### Prompt Param item: CCOC(=O)C[C@H]1[C@H](OC(=O)Cc2ccc3c(c2)OCO3)[C@@H](NC(=O)CC(C)C)c2cc(OCCCO)ccc2N1C(=O)c1ccccc1
### Response -0.0994

### Prompt Param item: CCCC/C=C/[C@H]([C@@H](O)Cc1ccccc1)N(CC#Cc1ccccc1)Cc1ccccc1Br
### Response -0.584

* * *

Target Under Test: Albumin (Bos taurus) (UniProt P02769)
Sequence (P02769 whole entry, looked up): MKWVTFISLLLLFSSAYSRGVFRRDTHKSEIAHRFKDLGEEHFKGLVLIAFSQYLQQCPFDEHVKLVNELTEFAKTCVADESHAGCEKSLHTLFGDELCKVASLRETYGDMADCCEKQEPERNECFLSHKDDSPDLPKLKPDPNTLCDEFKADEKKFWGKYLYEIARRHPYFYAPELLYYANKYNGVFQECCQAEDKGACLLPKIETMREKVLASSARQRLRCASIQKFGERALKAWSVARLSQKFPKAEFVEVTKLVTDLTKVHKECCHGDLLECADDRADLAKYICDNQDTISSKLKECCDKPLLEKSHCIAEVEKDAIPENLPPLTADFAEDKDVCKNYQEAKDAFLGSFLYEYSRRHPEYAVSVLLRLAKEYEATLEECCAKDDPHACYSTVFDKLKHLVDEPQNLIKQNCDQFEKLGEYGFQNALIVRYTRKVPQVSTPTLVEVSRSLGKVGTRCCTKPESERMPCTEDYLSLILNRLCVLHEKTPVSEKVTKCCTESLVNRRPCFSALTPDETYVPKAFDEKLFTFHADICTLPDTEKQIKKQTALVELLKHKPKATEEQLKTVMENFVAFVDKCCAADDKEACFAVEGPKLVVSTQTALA
Procedure Text: bovine serum albumin binders on microarray, profiling panel, artefact control for SMM control protein annotation, biochemical, small-molecule microarray, Alexa647 label, 635/667 nm fluorescence (AID 1118);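 also: score merges 667 nm emission intensity and signal-to-noise per printed compound spot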
Protocol Conditions: BSA-A647 binding, fluorescence 635 nm, higher = more signal
Lab note: compare composite z-score against 0.1. Equal or greater, write True. Smaller, write False.

### Prompt Decide: composite z-score of C=CC[C@@]12N=C(c3ccc(OCCCO)cc3)O[C@@H]1c1ccccc1CN(Cc1ccccc1)C2=O >= 0.1?
### Response True

### Prompt Param item: CN1C2C=C(c3ccc(CO)cc3)C(C3C(=O)N(C(N)=O)C(=O)C32)C1c1cccs1 (centres undefined)
### Response False

### Prompt Param item: [N-]=[N+]=NCc1ccccc1C[C@@]1(C(=O)O)N=C(c2ccc(OCCCO)cc2)O[C@@H]1c1ccccc1N=[N+]=[N-]
### Response True

### Prompt Param item: C=C(COC)/C(=C/C[C@@H](OC(=O)c1ccncc1)c1ccc(OCCO)cc1)c1cc(C(=O)OC)ccc1OC
### Response True

### Prompt Param item: C=C(C)[C@@H]1CC=C(C(O)C2C=CC3C(=O)NC(=O)C3N2Nc2ccccn2)CC1 (some centres undefined)
### Response False

### Prompt Param item: CCC#CCN(Cc1ccccc1Br)[C@H](/C=C/c1ccccc1)[C@@H](O)Cc1ccccc1
### Response False

### Prompt Param item: O=C(O)[C@@H]1Cc2c([nH]c3ccccc23)[C@@H](c2ccccc2)N1
### Response True

### Prompt Param item: CC(C)N1CC=CC23O[C@@H]4/C=C\CCCOC(=O)C4[C@H]2C(=O)N(CCO)[C@@H]3C1=O (some centres undefined)
### Response True

### Prompt Param item: O=C1OCCC=C[C@H]2OC34C=CCN(Cc5ccccc5)C(=O)[C@H]3N(CCO)C(=O)[C@@H]4C12 (some centres undefined)
### Response False
